Reference for the values: ChEMBL document CHEMBL1142136

Test system: Salmonella typhimurium
ASSAY PROCEDURE: Antimicrobial activity against Salmonella enterica serovar Typhimurium S21
Assay type: functional, Salmonella enterica subsp. enterica serovar Typhimurium
MEASURE: MIC

Reference set, count: 2
| MOLECULE | READING |
| --- | --- |
| NC[C@H]1O[C@H](O[C@H]2[C@H](O)[C@@H](O[C@H]3O[C@H](CO)[C@@H](O)[C@H](N)[C@H]3O)[C@H](N)C[C@@H]2N)[C@H](O)[C@@H](O)[C@@H]1O [KANAMYCIN] | < 8 µg/mL |
| CN(C)[C@@H]1C(O)=C(C(N)=O)C(=O)[C@@]2(O)C(O)=C3C(=O)c4c(O)cccc4[C@@](C)(O)[C@H]3C[C@@H]12 [TETRACYCLINE] | < 4 µg/mL |

Then there is this molecule:
Input line: Fill in: MIC of O=C(O)c1cn(C2CC2)c2cc(N3CCNCC3)c(F)cc2c1=O [CIPROFLOXACIN] is ___
Output line: < 0.015 µg/mL
